- recordedConditions: buffer; pH 7.4; 200.0 µM
propertyName: solubility kinetic

These recorded examples may help you get a feel for the data.
CCc1ccccc1NC(=O)CCOc1ccccc1 = 0.039 mg/mL
O=C(/C=C\N1CCOCC1)c1ccc(Br)cc1 = > 0.0444 mg/mL

Task: What value of measured solubility kinetic is listed for CN(C)CCOC(C)(c1ccccc1)c1ccccn1.O=C(O)CCC(=O)O (centres undefined) ?
Result: > 0.0583 mg/mL

Task: Same read-out for `O=C1Cc2ccccc2C(=O)N1c1ccccc1` ?
Result: 0.0351 mg/mL

Task: Same read-out for CC(CCc1ccccc1)NC(=O)C1CC1 (centres undefined) ?
Result: > 0.0326 mg/mL

Task: Same read-out for `Cc1ccc(NC(=S)N(N)CCO)cc1` ?
Result: > 0.0338 mg/mL

Task: Same read-out for `Cc1ccc(N=C2CSC(=O)N2)cc1` ?
Result: 0.0234 mg/mL

Task: Same read-out for `COc1ccc(N(CC(=O)Nc2cccnc2)S(=O)(=O)c2ccccc2)cc1Cl` ?
Result: 0.0342 mg/mL

Task: Same read-out for COc1cc2c(cc1OC)C(c1ccc(O)cc1)NCC2 (centres undefined) ?
Result: > 0.0428 mg/mL

* * *

- recordedConditions: buffer; pH 7.4; 200.0 µM
Field: class. Source value: solubility kinetic. Ranges: lowest = under 10 µg/mL, middle = from 10 µg/mL up to 30 µg/mL, highest = 30 µg/mL and over

Completed entries (count: 4):
Cc1cccc(-n2c(C)nc3ccsc3c2=O)c1 = highest
CCNC(=S)NC(=NCc1cccnc1)Nc1nc(C)cc(C)n1 = highest
Cc1ccc(-c2nonc2NC(=O)c2ccco2)cc1 = highest
CCOc1ncccc1C(=O)NCCc1ccc(OC)cc1 = highest

Task: Any idea which band `COc1ccccc1C(=O)OCC(=O)Nc1cccc(S(=O)(=O)NC2=NCCCCC2)c1` is in?
Result: highest

Task: Same read-out for `N/C(=N\OC(=O)c1ccc([N+](=O)[O-])cc1Cl)c1ccccn1` ?
Result: middle

Task: Same read-out for `O=C1c2ccccc2C(=O)C1c1ccccn1` ?
Result: middle

* * *

- recordedConditions: buffer; pH 7.4; 200.0 µM
Recorded solubility kinetic for the following compounds
Express the result in µg/mL but write the number alone.

Cc1cc2nc(-c3ccc[nH]c3=O)n(Cc3ccccc3F)c2cc1C = 0.4
NS(=O)(=O)c1ccc2c(c1)C(=NO)c1cc(S(N)(=O)=O)ccc1-2 = 4.6

Shifting focus to the compound that follows.
Task: What value of measured solubility kinetic is listed for `CN1C[C@@H]2C[C@@H](c3cccn3-c3nccs3)N3CCC[C@@]23C1=O` ?
Result: 47.2

* * *

- recordedConditions: buffer; pH 7.4; 200.0 µM
propertyName: log10(solubility kinetic) (log10 of the value in µg/mL)
Please keep in mind that the values are log10 of solubility kinetic expressed in µg/mL.

These recorded examples may help you get a feel for the data.
Cc1ccc(NC(=O)c2cnccn2)cc1C = 1.50
C#CCn1cccc(C(=O)Nc2ccc(OC)cc2)c1=O = 0.80
O=C(Nc1ccc(Cl)cc1)c1ccco1 = 1.49
O=c1oc2ccccc2c(CNc2ccccc2)c1[N+](=O)[O-] = 0.49

Task: What value of measured log10(solubility kinetic) is listed for `Cc1ccc2c(CN3CCC(C)CC3)cc(=O)oc2c1C` ?
Result: 0.59

Task: Same read-out for `O=c1oc(/C=C/c2ccc([N+](=O)[O-])s2)nc2ccccc12` ?
Result: -0.30

Task: Same read-out for `O=C(c1ccc(CNS(=O)(=O)c2cccc(Cl)c2)cc1)N1CCCCC1` ?
Result: 0.41

Task: Same read-out for `COC(=O)c1sc(S(=O)(=O)N2CCN(c3ccccc3F)CC2)c(C(=O)OC)c1C` ?
Result: 0.32
